target: Human adrenergic α2A receptor (Homo sapiens, UniProt P08913)
Sequence (P08913 whole entry): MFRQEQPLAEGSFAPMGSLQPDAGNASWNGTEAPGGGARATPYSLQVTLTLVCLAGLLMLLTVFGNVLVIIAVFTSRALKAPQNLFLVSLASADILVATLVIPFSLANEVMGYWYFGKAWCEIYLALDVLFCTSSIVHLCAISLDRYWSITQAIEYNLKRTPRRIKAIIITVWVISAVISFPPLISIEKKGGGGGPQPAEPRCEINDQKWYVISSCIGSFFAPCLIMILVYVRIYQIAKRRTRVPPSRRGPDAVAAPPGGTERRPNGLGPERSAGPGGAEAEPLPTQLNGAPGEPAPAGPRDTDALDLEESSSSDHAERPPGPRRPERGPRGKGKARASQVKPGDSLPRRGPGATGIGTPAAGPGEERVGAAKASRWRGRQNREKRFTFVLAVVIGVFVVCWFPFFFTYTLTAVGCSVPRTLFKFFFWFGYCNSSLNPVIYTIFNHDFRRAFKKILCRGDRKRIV
assay remarks: Radioligand binding, adrenergic α2A (Protocol Group B)
Design: purchased Milipore (Millipore)
assay context: 0.1 μM compound; Protocol Group B; 0.1 µM
readout name: Percentage inhibition of ligand binding, Adrenergic α2A (0.1 μM) (%)

Some solved cases for reference:
Cc1ccc2c(c1)c1c(n2CC(O)c2ccccn2)CC2CCCN2C1 (single isomer, unassigned) [45d]; −7
Cc1cc2c3c(n(CC(C)(O)c4ccncc4)c2cc1Cl)CCN1CCCC31 (single isomer, unassigned) [50d]; −9
Cc1cc(F)c2c(c1)c1c(n2CC(C)(O)c2ccncc2)CC2CCCN2C1 (single isomer, unassigned) [62c]; 5
Cc1ccc2c(c1)c1c(n2CC(C)(O)c2cccnc2)CC2CCCN2C1 (stereo not shown) [41c]; −12
Cc1cc(F)c2c(c1)c1c(n2CC(C)(O)c2ccncc2)CCN2CCCC12 (single isomer, unassigned) [81c]; 3

I: OC(Cn1c2c(c3cc(Cl)ccc31)C1CCCN1CC2)c1ccncc1 (single isomer, unassigned) [143b]
II: Cc1cc(C)c2c(c1)c1c(n2CC(C)(O)c2cccnc2)CCN2CCCC12 (single isomer, unassigned) [44a]
Form: Entry with minimum Percentage inhibition of ligand binding, Adrenergic α2A (0.1 μM) (choose one): I / II Refer to your chosen entry by its label in the reply. II
